target: Cytochrome P450 3A4 (Homo sapiens, UniProt P08684); experiment: Inhibition of CYP3A4 red; assay type: ADME
Sequence (P08684 whole entry): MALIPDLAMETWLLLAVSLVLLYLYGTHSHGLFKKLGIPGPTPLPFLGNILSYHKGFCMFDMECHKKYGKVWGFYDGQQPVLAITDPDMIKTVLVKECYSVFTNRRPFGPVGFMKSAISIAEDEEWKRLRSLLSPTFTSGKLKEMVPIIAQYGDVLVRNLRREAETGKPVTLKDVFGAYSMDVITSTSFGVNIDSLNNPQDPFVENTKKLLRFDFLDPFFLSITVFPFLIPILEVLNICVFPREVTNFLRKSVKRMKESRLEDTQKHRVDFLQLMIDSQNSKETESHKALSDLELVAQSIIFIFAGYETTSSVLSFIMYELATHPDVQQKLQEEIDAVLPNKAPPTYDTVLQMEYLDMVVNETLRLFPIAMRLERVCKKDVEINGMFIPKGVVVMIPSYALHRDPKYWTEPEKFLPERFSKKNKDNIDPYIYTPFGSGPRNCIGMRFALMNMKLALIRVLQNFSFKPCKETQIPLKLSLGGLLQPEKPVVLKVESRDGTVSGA
value kind: IC50

C[C@H]1CN(S(=O)(=O)C[C@]23CC[C@H](C[C@@H]2O)C3(C)C)CCN1c1ncc(C(F)(F)F)cc1F : > 25 µM

May I ask what IC50 has been recorded for `C[C@H]1CN(S(=O)(=O)C[C@]23CC[C@H](CC2=O)C3(C)C)CCN1c1ncc(C(F)(F)F)cc1F` ? 0.32 µM

###

target: Cytochrome P450 3A4 (Homo sapiens, UniProt P08684); assay: Inhibition of CYP3A4 green; format: ADME
value kind: IC50 (µM)
Provide only the numeric value, understood in µM.

May I ask what IC50 has been recorded for `C[C@H]1CN(S(=O)(=O)C[C@]23CC[C@H](C[C@@H]2O)C3(C)C)CCN1c1ncc(C(F)(F)F)cc1F` ? 13.6
